solubility values, listed per item
# procedure summary: physchem
# run parameters: water
assay readout: solubility

INSERT INTO assay_data (compound, result) VALUES
  ('Cc1c(C)c2c(c(C)c1O)CCC(C)(C(=O)NCCCNC(=O)CC[C@@H](C)[C@H]1CC[C@H]3[C@@H]4CC[C@@H]5C[C@H](O)CC[C@]5(C)[C@H]4C[C@H](O)[C@]13C)O2 (stereo partly drawn)', '> 100 µg/mL'),
  ('CCCCCCCCCCCCCCCCCCOCC(O)COCc1cc(C(C)(C)C)c(O)c(C(C)(C)C)c1 (stereo not drawn)', '< 100 µg/mL'),
  ('CCCCCCNC(=O)C1(C)CCc2c(C)c(O)c(C)c(C)c2O1 (stereo not drawn)', '> 100 µg/mL'),
  ('CC(C)CCC[C@@H](C)[C@H]1CC[C@H]2[C@@H]3CC=C4C[C@@H](OCCOCc5cc(C(C)(C)C)c(O)c(C(C)(C)C)c5)CC[C@]4(C)[C@H]3CC[C@]12C', '< 100 µg/mL'),
  ('Cc1c(C)c2c(c(C)c1O)CCC(C)(C(=O)NCCCNC(=O)CC[C@@H](C)[C@H]1CC[C@H]3[C@@H]4[C@H](O)C[C@@H]5C[C@H](O)CC[C@]5(C)[C@H]4C[C@H](O)[C@]13C)O2 (stereo partly drawn)', '> 100 µg/mL'),
  ('CCCCCCCCCCCCCCCCCCCC(O)C(Cc1cc(C(C)(C)C)c(O)c(C(C)(C)C)c1)C(=O)O (stereo not drawn)', '> 10000 µg/mL');

* * *

# procedure summary: Solubility in water and olive oil (Method III)
# run parameters: water
assay readout: solubility

INSERT INTO measurements (molecule, result) VALUES
  ('CCCCCCCCCCCCCCCCCCCC(O)C(Cc1cc(C(C)(C)C)c(O)c(C(C)(C)C)c1)C(=O)OCC (centres unmarked) [Example 24]', '< 100 µg/mL'),
  ('CCCCCCCCCCCCCCCC(=O)OC[C@H](O)[C@H]1OC(=O)C(O)=C1O [Ascorbyl palmitate, reference compound]', '< 100 µg/mL'),
  ('CC(C)CCCC(C)C1CC[C@H]2C3CC=C4CC(OC(=O)CCCCC5CCSS5)CC[C@]4(C)[C@H]3CC[C@]12C (some centres unmarked) [Example 53]', '< 100 µg/mL'),
  ('CC(CCC(=O)NCCCNC(=O)CCCCC(S)CCS)C1CC[C@H]2C3CC[C@@H]4C[C@H](O)CC[C@]4(C)[C@H]3C[C@H](O)[C@]12C (some centres unmarked) [Example 48]', '< 100 µg/mL'),
  ('O=C(O)c1cc(O)c(O)c(O)c1 [Gallic acid, reference compound]', '> 10000 µg/mL'),
  ('CCCCCCCCCCCCCCCCCCP(=O)(OC1=C(O)C([C@@H](O)CO)OC1=O)OC1=C(O)C([C@@H](O)CO)OC1=O (some centres unmarked) [Example 37]', '> 10000 µg/mL'),
  ('CCCCCCCCCCCCCCCCCC(=O)OC[C@H](O)[C@H]1OC(=O)C(OP(=O)(OCC)OCC)=C1O [Example 34]', '< 100 µg/mL'),
  ('CCCCCCCCCCCCCCCCCCNC(=O)CCCCC(S)CCS (racemic) [Example 49]', '< 100 µg/mL'),
  ('Cc1c(C)c2c(c(C)c1O)CCC(C)(C(=O)NCCO[C@H]1CC[C@@]3(C)[C@@H](C1)C[C@@H](O)[C@@H]1[C@@H]3C[C@H](O)[C@]3(C)[C@@H]([C@H](C)CCC(=O)O)CC[C@@H]13)O2 (some centres unmarked) [Example 3]', '< 100 µg/mL'),
  ('CCCCCCCCCCCCCCCCCCCC(O)C(CO)Cc1cc(C(C)(C)C)c(O)c(C(C)(C)C)c1 (centres unmarked) [Example 25]', '< 100 µg/mL'),
  ('O[C@H](CS)[C@@H](O)CS [Dithioerythritol, reference compound]', '> 10000 µg/mL'),
  ('CC(C)CCC[C@@H](C)[C@H]1CC[C@H]2[C@@H]3CC=C4C[C@@H](OCCOC5=C(O)[C@@H]([C@@H](O)CO)OC5=O)CC[C@]4(C)[C@H]3CC[C@]12C [Example 33]', '< 100 µg/mL'),
  ('Cc1c(C)c2c(c(C)c1O)CCC(C)(C(=O)NC1CCCCC1)O2 (centres unmarked) [Example 8]', '< 100 µg/mL'),
  ('CCCCCCCCCCCCCCCC(=O)NCCCNC(=O)C1(C)CCc2c(C)c(O)c(C)c(C)c2O1 (centres unmarked) [Example 7]', '< 100 µg/mL');

* * *

# procedure summary: Solubility in water and olive oil (Method III)
# run parameters: water
# Experimental: a) Preparation of olive oil or aqueous solutions. 1 ml of olive oil or I ml of double-distilled water (or dilute NaOH pH=7.6) was added to 1 mg or 10 mg or 50 mg of the respective compound at 37° C. and it was checked whether a clear solution was obtained. The optionally centrifuged and decanted olive oil solutions were heated for 5 minutes using a Bunsen burner and the degree of browning of the olive oil was determined. […]
Counter-ions that a name gives are not always drawn.
Form field: solubility (one value per entry).
assay readout: solubility

INSERT INTO measurements (compound, assay_readout, result) VALUES
  ('O=C(O)CCCC[C@@H](S)CCS (racemic) [Dihydrolipoic acid, Na salt, Dihydrolipoic acid, reference compound]', 'solubility', '> 10000 µg/mL'),
  ('CCCCCCC(=O)NCCCNC(=O)C1(C)CCc2c(C)c(O)c(C)c(C)c2O1 (stereo not shown)', 'solubility', '< 100 µg/mL'),
  ('CC(C)CCCC(C)C1CC[C@H]2C3CC=C4CC(OC(=O)CCCCC(S)CCS)CC[C@]4(C)[C@H]3CC[C@]12C (stereo partly shown)', 'solubility', '< 100 µg/mL'),
  ('Cc1cc(C(C)(C)C)c(O)c(C(C)(C)C)c1 [BHT, butylated hydroxytoluene, reference compound]', 'solubility', '< 100 µg/mL');

* * *

# procedure summary: Solubility in water and olive oil (Method III)
# run parameters: water
# Procedure: a) Preparation of olive oil or aqueous solutions. 1 ml of olive oil or I ml of double-distilled water (or dilute NaOH pH=7.6) was added to 1 mg or 10 mg or 50 mg of the respective compound at 37° C. and it was checked whether a clear solution was obtained. The optionally centrifuged and decanted olive oil solutions were heated for 5 minutes using a Bunsen burner and the degree of browning of the olive oil was determined. […]
assay readout: solubility

INSERT INTO measurements (molecule, result) VALUES
  ('CC(C)(C)OC(=O)CCCCC(CCSCc1cc(C(C)(C)C)c(O)c(C(C)(C)C)c1)SCc1cc(C(C)(C)C)c(O)c(C(C)(C)C)c1 (stereo not drawn) [Example 20]', '< 100 µg/mL'),
  ('CCCCCCCCCCCCCCCCCCCC(=O)C(Cc1cc(C(C)(C)C)c(O)c(C(C)(C)C)c1)C(=O)OCC (stereo not drawn) [Example 18]', '< 100 µg/mL'),
  ('CCCCCCCCCCCCCCCCCCNC(=O)C1(C)CCc2c(C)c(O)c(C)c(C)c2O1 (stereo not drawn) [Example 6]', '< 100 µg/mL'),
  ('CCCCCCCCCCCCCCCCCCOC(=O)CCCCC(S)CCS (stereo not drawn) [Example 50]', '< 100 µg/mL'),
  ('CCCCCCCCCCCCCCCCCCCC1OC(C)(C)OCC1Cc1cc(C(C)(C)C)c(O)c(C(C)(C)C)c1 (stereo not drawn) [Example 26]', '< 100 µg/mL'),
  ('CCCCCCCCCCCCCCCCCCC(COCCOC1=C(O)C(C(O)CO)OC1=O)COCCOC1=C(O)C(C(O)CO)OC1=O (stereo not drawn) [Example 36]', '> 10000 µg/mL'),
  ('CCCCCCCCCCCCCCCCCCOCC(O)COC(=O)c1cc(C(C)(C)C)c(O)c(C(C)(C)C)c1 (stereo not drawn) [Example 23]', '< 100 µg/mL'),
  ('Cc1c(C)c2c(c(C)c1O)CCC(C)(C(=O)O)O2 (stereo not drawn) [reference compound]', '> 10000 µg/mL'),
  ('O=C(O)C(S)C(S)C(=O)O (stereo not drawn) [2,3-Mercaptosuccinic acid, reference compound]', '> 10000 µg/mL');
